- Tested on: SK-OV-3
- method summary: NCI tumour cell line growth inhibition, 48 h
Activity calls are given as the source filed them. No stated cut-off is given here; in the data, active = GI50 up to about 1.1 µM and inactive = higher.
Below: a set of entries, each annotated with reported GI50.

compound: O=C(N/N=C/C=C/c1ccc([N+](=O)[O-])o1)c1ccc(Br)s1
GI50: > 100 µM (inactive)

compound: CC(C)[Si](OC1=C(C(=O)Nc2ccccc2Cl)CCCCC1)(C(C)C)C(C)C
GI50: > 100 µM (inactive)

compound: CCSC1=N/C(=C\c2ccco2)C(Nc2ccc(C)cc2)=N1
GI50: > 100 µM (inactive)

compound: CC(=O)N1C(Nc2cnc3ccccc3c2)CCN1c1ccccc1 (stereo not given)
GI50: > 10 µM (inactive)

compound: CC(C)N(C(=O)C12C3C4C1C1C2C3C41C(=O)C(C)(C)C)C(C)C (stereo not given)
GI50: > 100 µM (inactive)

compound: Brc1ccccc2cc(-c3ccccc3)nc1-2
GI50: 8.69 µM (inactive)

compound: CC(O)(C(=O)N(O)c1ccc(Cl)cc1)c1ccc(Cl)cc1 (stereo not given)
GI50: 33.1 µM (inactive)

compound: CN(C)/N=N/c1nc2c(c(=O)n(C)c(=O)n2C)n1CC1CO1 (stereo not given)
GI50: 17.2 µM (inactive)

compound: CC1=C(C(=O)NNC(=O)c2ccccc2)CC(C(=O)NNC(=O)c2ccccc2)=C(C)N1
GI50: > 100 µM (inactive)

compound: CC1(C)c2ccccc2C(=O)C12CCC(=O)CC2
GI50: > 100 µM (inactive)

###

- System: SW-620
- method summary: NCI tumour cell line growth inhibition, 48 h
Active and inactive are the calls of the source. Rule as the data show it: active = GI50 up to about 1.1 µM and inactive = higher.
Measured GI50 by item

line notation: COc1ccc(-c2c(C#N)c(N)nc(S)c2C#N)cc1
target or test system: SW-620
GI50: 22.2 µM (inactive)

line notation: O=S(=O)(N/N=C/c1cccc(Cl)c1Cl)c1ccccc1
target or test system: SW-620
GI50: > 100 µM (inactive)

line notation: O=C(NCc1ccc(Cl)cc1)c1cc2sccc2nc1C(F)(F)F
target or test system: SW-620
GI50: 54.2 µM (inactive)

###

- Test system: SW-620
- method summary: NCI tumour cell line growth inhibition, 48 h
Activity calls are given as the source filed them. Rule as the data show it: active = GI50 up to about 1.1 µM and inactive = higher.
List of GI50 values.

compound: O=C1Cc2c(-c3ccccc3)cc(-c3cccc(Cl)c3)nc2-c2ccccc2N1
GI50: 3.91 µM (inactive)
//
compound: C#CCOCn1ccc(=O)[nH]c1=O
GI50: > 100 µM (inactive)
//
compound: COC(=O)C1=C(O)c2cc(OC)c(OC)cc2C(c2ccc(OC)c(OC)c2)C1 (configuration not stated)
GI50: 54.8 µM (inactive)
//
compound: COC(=O)c1cc(Br)c(Br)n1C
GI50: > 100 µM (inactive)
//
compound: COC(=O)n1c(C[P+](c2ccccc2)(c2ccccc2)c2ccccc2)cc2ccccc21
GI50: 1.85 µM (inactive)
//
compound: N=C(N)NCCCC(Nc1c2ccccc2nc2ccccc12)C(=O)O (configuration not stated)
GI50: > 100 µM (inactive)
//
compound: N#Cc1cccc2c1Nc1ccccc1S2
GI50: > 100 µM (inactive)
//
compound: COC(=O)Nc1nc2cc(NS(=O)(=O)c3ccc(F)cc3)ccc2[nH]1
GI50: 6.27 µM (inactive)
//
compound: COc1ccc(-c2cc(=O)c3c(OC)c(OC)c(OC)cc3o2)cc1
GI50: 36.8 µM (inactive)
//
compound: Cc1nnc2sc(NN)nn12
GI50: > 100 µM (inactive)
//
compound: COC12OCCN(C)C1=CC(=O)C1(C)N=NCC12 (configuration not stated)
GI50: > 100 µM (inactive)
//
compound: CC12CC3c4ccccc4CN1C3(c1ccccc1)OC2=O (configuration not stated)
GI50: > 100 µM (inactive)

###

- System: CCRF-CEM
- method summary: NCI tumour cell line growth inhibition, 48 h
Active and inactive are the calls of the source. Rule as the data show it: active = GI50 up to about 1.1 µM and inactive = higher.
Labels: active, inactive

molecule: COc1cccc2c1C(=O)c1c(O)c3c(c(O)c1C2=O)C[C@@](O)(/C(C)=N\O)C[C@@H]3OC1CC(N)C(O)C(C)O1 (some centres undefined)
qualitative label: active

molecule: COC(=O)Nc1nc2cc(NS(=O)(=O)c3ccc(F)cc3)ccc2[nH]1
qualitative label: inactive

molecule: CCCCCCCCCCCCc1ccc(S(=O)(=O)O)cc1
qualitative label: inactive

molecule: CC(O)/C=C/C1OC(=O)CC1Nc1ccc(C=O)cc1 (centres undefined)
qualitative label: inactive

molecule: O=C(NCCCCl)c1c(O)c2ccccc2[nH]c1=O
qualitative label: inactive

molecule: N#C/C(=C/c1cccc(Oc2ccccc2)c1)c1ccccc1
qualitative label: inactive

molecule: COc1ccc(CC(C)NCC(O)c2ccc(O)c(NC=O)c2)cc1 (centres undefined)
qualitative label: inactive

molecule: Cc1ccc2n(c1)cc(-c1ccc(/C=N/NC(=N)N/N=C/c3ccc(-c4cn5cc(C)ccc5[n+]4C)cc3)cc1)[n+]2C
qualitative label: inactive

molecule: CC1=C(C(=O)OC(C)C)C(c2ccccc2C(F)(F)F)C(C(=O)OC(CO[N+](=O)[O-])CO[N+](=O)[O-])=C(C)N1 (centres undefined)
qualitative label: inactive

molecule: CC1=C/C(=N\N(C)C)C(C(O)(C(F)(F)F)C(F)(F)F)C(C)(C)C1 (centres undefined)
qualitative label: inactive

molecule: CC[C@@]1(O)C(=O)OCc2c1cc1n(c2=O)Cc2c-1nc1ccccc1c2/C=N\NC(=O)C[n+]1ccccc1
qualitative label: active

molecule: N#Cc1cccc2c1Nc1ccccc1S2
qualitative label: inactive

molecule: c1ccc(COc2ncccc2C2SCCCS2)cc1
qualitative label: inactive

molecule: COc1ccc(-c2cc(=O)c3c(OC)c(OC)c(OC)cc3o2)cc1
qualitative label: inactive

molecule: O=C(N[C@H]1CCC[C@H]1C(=O)Nc1ccc(C(F)(F)F)cc1)OCc1ccccc1
qualitative label: inactive

molecule: CCOC(=O)C(C)(c1c(C)[nH]c2ccccc12)c1c(C)[nH]c2ccccc12
qualitative label: inactive

molecule: CCCCOP(C)(=O)C(NC(=O)OCC)(C(F)(F)F)C(F)(F)F (centres undefined)
qualitative label: inactive

molecule: C/C(CC(=O)Nc1cccc(C)c1C)=N\NC(N)=S
qualitative label: inactive

molecule: O=C(c1ccccc1)C(c1ccccc1)C1(O)C(=O)Nc2c(Cl)ccc(Cl)c21 (centres undefined)
qualitative label: inactive

molecule: O=c1[nH]c(=O)n([C@H]2C[C@H](O)[C@@H](CO)O2)cc1Br [BROXURIDINE]
qualitative label: inactive

molecule: CCOC(=O)CC1Nc2ccccc2C12CCc1c([nH]c3ccccc13)C2C(=O)OCC (centres undefined)
qualitative label: active

molecule: O=C1C(Cl)=C(N2CCC[C@H]2CO)C(=O)c2c(O)ccc(O)c21
qualitative label: active

molecule: COc1ccc(-c2cc(=O)c3c(OC)cccc3o2)c(OC)c1OC
qualitative label: inactive

molecule: CC(C)(C)C(=O)CC(=O)C(C)(C)C.CC(C)(C)C(=O)CC(=O)C(C)(C)C.[SiH4]
qualitative label: inactive

molecule: CC(C)(C)OC(=O)CC(NC(=O)OC(C)(C)C)C(=O)N[C@@H]1CCCC[C@H]1C(=O)OCc1ccccc1 (some centres undefined)
qualitative label: inactive

molecule: O=CC(O)C(O)C(O)C(O)COP(=O)(O)Cc1ccccc1 (centres undefined)
qualitative label: inactive

molecule: O=C1CCCc2ccc([N+](=O)[O-])c(O)c21
qualitative label: inactive

molecule: CC1=NN(C(=O)c2ccncc2)C(=O)C1/N=N/c1ccc2ccccc2c1 (centres undefined)
qualitative label: inactive

molecule: COc1ccc(Sc2ccccc2N)cc1
qualitative label: inactive

molecule: COC(=O)c1onc(C2OC(C)(C)OC2C(O)COC(c2ccccc2)(c2ccccc2)c2ccccc2)c1C(=O)OC (centres undefined)
qualitative label: inactive

molecule: O=c1[nH][nH]c(=O)n1Cc1cccc(Cn2c(=O)[nH][nH]c2=O)c1
qualitative label: inactive

molecule: Cc1ccc2c(c1)Nc1cc(C(F)(F)F)ccc1[PH]2=O (centres undefined)
qualitative label: inactive

molecule: N=C(N)C1CN(CCc2c[nH]cn2)C(=O)NC1=O (centres undefined)
qualitative label: inactive

molecule: [O-][n+]1ccccc1Sc1nc(Sc2cccc[n+]2[O-])nc(Sc2cccc[n+]2[O-])n1
qualitative label: active

molecule: COc1ccc(C2=C(Cl)C(=O)O/C2=C\c2ccc(OC)c(Br)c2)cc1Cl
qualitative label: inactive

molecule: O=C(c1ccccc1)C1C(C(=O)c2ccccc2)N1Cc1ccccc1 (centres undefined)
qualitative label: inactive

molecule: C=C/C(C)=C/[C@H](C)C(=O)C[C@H](O)CC1CC(=O)NC(=O)C1
qualitative label: inactive

molecule: COc1ccc(C2=C(N)c3c(OC)cccc3C2=O)cc1
qualitative label: inactive

molecule: CCOc1cccc2ccc[n+](CC)c12
qualitative label: inactive

###

- Test system: SK-OV-3
- method summary: NCI tumour cell line growth inhibition, 48 h
Calls of active or inactive are those of the source. Rule as the data show it: active = GI50 up to about 1.1 µM and inactive = higher.
Classes used: t = active, f = inactive

molecule: NCCCc1c(-c2ccccc2)[nH]c(N)nc1=O
qualitative label: f
//
molecule: C[n+]1c(-c2ccc(NC(=O)c3ccc(C(=O)Nc4ccc(-c5cn6ccccc6[n+]5C)cc4)cc3)cc2)cn2ccccc21
qualitative label: f
//
molecule: OC12CC3c4ccccc4NC3C3Oc4cccc5c4C31CCN(CC1CC1)C2C5 (centres undefined)
qualitative label: f
//
molecule: Cc1ccc(S(=O)(=O)N/N=C2/CC3CCC4CC2CC34)cc1 (centres undefined)
qualitative label: f
//
molecule: OC1(c2ccccc2)c2ccccc2N=C2NCCN21 (centres undefined)
qualitative label: f
//
molecule: CC(C)(C)c1cc2c(OP(c3ccccc3)c3ccccc3)c(c1)Cc1cc(C(C)(C)C)cc(c1OP(c1ccccc1)c1ccccc1)Cc1cc(C(C)(C)C)cc(c1OP(c1ccccc1)c1ccccc1)Cc1cc(C(C)(C)C)cc(c1OP(c1ccccc1)c1ccccc1)C2
qualitative label: f
//
molecule: CCCCOP(C)(=O)C(NC(=O)OCC)(C(F)(F)F)C(F)(F)F (centres undefined)
qualitative label: f
//
molecule: CC1=NN(C(=O)c2ccncc2)C(=O)C1/N=N/c1ccc2ccccc2c1 (centres undefined)
qualitative label: f
//
molecule: C/C(CN1C(=O)c2ccccc2C1=O)=N\NS(C)(=O)=O
qualitative label: f
//
molecule: CO[C@H]1C[C@](C)(O)Cc2cc3c(c(O)c21)C(=O)c1c(O)cc2c(c1C3=O)O[C@@H]1O[C@@]2(C)[C@H](O)[C@@H](N(C)C)[C@@H]1O
qualitative label: t
//
molecule: CCCCCCCCCCCC1=C(O)C(=O)C=C(O)C1=O [EMBELIN]
qualitative label: f
//
molecule: Nc1ccc(-c2nc3ccccc3s2)cc1F
qualitative label: f
//
molecule: c1ccc2c(c1)c1ccccc1c1n[se]nc21
qualitative label: f
//
molecule: CN(C)c1c(C2CC(O)C(CO)O2)c(=O)c1=O (centres undefined)
qualitative label: f
